assay overview: qHTS assay to identify small molecule agonists of the constitutive androstane receptor (CAR) signaling pathway - cell viability counter screen (AID 1224836); further: nearly all actives have a fitted effect of over 45% in size
conditions used: HepG2-CYP2B6-hCAR viability, CellTiter-Fluor, 23 h, PK11195 added to every well; series mostly up to 92.4 µM
Results filed as inconclusive are left out. Calls of active or inactive are those of the source. The call rests on the fitted dose curve; in most records, active means well fitted cell-killing curve with a large enough effect in the repeat runs; inconclusive means weak or mixed curves, or effect the other way; inactive means flat fitted curve, though single readings scatter.
readout: viability change, negative = cytotoxic

Consider the reported viability change, negative = cytotoxic for these compounds:
>  <compound>
Cc1nc(C)nc(N2C[C@@H](C)N(c3ccnc([C@@H](C)O)n3)[C@@H](C)C2)n1

>  <viability change, negative = cytotoxic>
inactive

$$$$
>  <compound>
O=P(O)(O)OCC(O)CO (stereo not drawn)

>  <viability change, negative = cytotoxic>
inactive

$$$$
>  <compound>
CCCC(C)CC (stereo not drawn)

>  <viability change, negative = cytotoxic>
inactive

$$$$
>  <compound>
CCOC(=O)CC(CC(=O)OCC)(OC(C)=O)C(=O)OCC

>  <viability change, negative = cytotoxic>
inactive

$$$$
>  <compound>
CCCCCCCC/C=C\CCCCCCCC(=O)OC[C@@H](O)[C@H]1OC[C@H](O)[C@H]1O

>  <viability change, negative = cytotoxic>
inactive

$$$$

Report viability change, negative = cytotoxic, nothing else, for this compound: "C=CCOCC(CO)(COCC=C)COCC=C"
inactive

Report viability change, negative = cytotoxic, nothing else, for this compound: "C[C@@H]1C[C@H]2[C@@H]3C[C@H](F)C4=CC(=O)C=C[C@]4(C)[C@@]3(F)[C@@H](O)C[C@]2(C)[C@@]1(O)C(=O)CO"
inactive

Report viability change, negative = cytotoxic, nothing else, for this compound: "CC(C)(c1ccc(Oc2ccc3c(c2)C(=O)OC3=O)cc1)c1ccc(Oc2ccc3c(c2)C(=O)OC3=O)cc1"
inactive

----------
assay overview: qHTS assay for identifying genotoxic compounds that show differential cytotoxicity against isogenic chicken DT40 cell lines with known DNA damage response pathways - wild type cell line (AID 743012); further: nearly all actives have a fitted effect of over 60% in size
conditions used: DT40 wild type chicken cells viability, CellTiter-Glo, 40 h; series mostly up to 68.4 µM
Results filed as inconclusive are left out. The source made the active and inactive calls. Calls come from the whole dose curve; as a rule, active = well fitted cell-killing curve with a large enough effect in the repeat runs; inconclusive = weak or mixed curves, or effect the other way; inactive = no such curve, though single readings can be large or run the other way.

>  <cpd smiles>
CCOC(=O)OCC/C(SC(=O)OCC)=C(\C)N(C=O)Cc1cnc(C)nc1N

>  <outcome>
inactive

$$$$
>  <cpd smiles>
CC(=O)c1ccc(OCC(=O)N2CCCCC2)cc1

>  <outcome>
inactive

$$$$
>  <cpd smiles>
F[Si-2](F)(F)(F)(F)F

>  <outcome>
inactive

$$$$

----------
assay overview: qHTS assay to test for compound auto fluorescence at 590 nm (red) in HepG2 cell free culture (AID 720684)
conditions used: cell-free medium autofluorescence, red 540/590 nm; series mostly up to 91.3 µM
The source made the active and inactive calls. Calls come from the whole dose curve; as a rule, active = well fitted curve in the direction sought with a large enough effect in the repeat runs; inconclusive = weak or mixed curves; inactive = flat fitted curve, though single readings scatter.
readout: fluorescence, % of Rose Bengal

>  <compound>
Cc1cccc(NC(=S)N(C)C)c1

>  <fluorescence, % of Rose Bengal>
inactive

$$$$
>  <compound>
O=P(O)(O)OCC(O)CO (stereo not drawn)

>  <fluorescence, % of Rose Bengal>
inactive

$$$$
>  <compound>
CC(C)=CC(C)(C)C

>  <fluorescence, % of Rose Bengal>
inactive

$$$$
>  <compound>
CC(C)(C)NCCO

>  <fluorescence, % of Rose Bengal>
inactive

$$$$

Report fluorescence, % of Rose Bengal, nothing else, for this compound: "CC(C)C(=O)c1ccccc1"
inactive

Report fluorescence, % of Rose Bengal, nothing else, for this compound: "CC(=O)/C=C/c1ccco1"
inactive

Report fluorescence, % of Rose Bengal, nothing else, for this compound: "Nc1cc(C(=O)O)ccc1Cl"
inactive

Report fluorescence, % of Rose Bengal, nothing else, for this compound: CC(C)CCCCCCOC(=O)C1CCCCC1C(=O)OCCCCCCC(C)C (stereo not drawn)
inactive

Report fluorescence, % of Rose Bengal, nothing else, for this compound: "O=S(=O)(O)CCO"
inactive

Report fluorescence, % of Rose Bengal, nothing else, for this compound: "CCCCCCCC/C=C\CCCCCCCC(=O)OC[C@@H](O)[C@H]1OC[C@H](O)[C@H]1O"
inactive

Report fluorescence, % of Rose Bengal, nothing else, for this compound: "CC(C)(C)c1ccc(C=O)cc1"
inactive

Report fluorescence, % of Rose Bengal, nothing else, for this compound: "Cc1cccc(C(=O)O)c1[N+](=O)[O-]"
inactive

Report fluorescence, % of Rose Bengal, nothing else, for this compound: "CC(C)COC(=O)/C=C/c1ccccc1"
inactive

Report fluorescence, % of Rose Bengal, nothing else, for this compound: "O=C(CN1CCN(Cc2ccc3c(c2)OCO3)CC1)N1c2ccccc2Sc2ccccc21"
inactive

Report fluorescence, % of Rose Bengal, nothing else, for this compound: "O=C(/C=C/c1ccccc1)NCCO"
inactive

Report fluorescence, % of Rose Bengal, nothing else, for this compound: "CCCOCCOCCOCCO"
inactive

Report fluorescence, % of Rose Bengal, nothing else, for this compound: "CCCCCCCCC(=O)OCC"
inactive

Report fluorescence, % of Rose Bengal, nothing else, for this compound: "O=C1OC(=O)c2ccccc21"
inactive

Report fluorescence, % of Rose Bengal, nothing else, for this compound: CC(C)COC(=O)CC(C(=O)OCC(C)C)S(=O)(=O)O (stereo not drawn)
inactive

Report fluorescence, % of Rose Bengal, nothing else, for this compound: COC(OC)C(C)c1ccccc1 (stereo not drawn)
inactive

Report fluorescence, % of Rose Bengal, nothing else, for this compound: "CCCCOC(=O)[C@@H](C)Oc1ccc(Oc2ccc(C(F)(F)F)cn2)cc1"
inactive

Report fluorescence, % of Rose Bengal, nothing else, for this compound: "CNC(=O)NC"
inactive

Report fluorescence, % of Rose Bengal, nothing else, for this compound: "Cc1ccc(S(=O)(=O)NC(=O)NC2CCCCCCC2)cc1"
inactive

Report fluorescence, % of Rose Bengal, nothing else, for this compound: "O=C(Oc1ccccc1C(=O)O)c1ccccc1O"
inactive
